Reference source for all entries: paper PMC12011786

assay: Pharmacokinetics of methoxyflavones after single oral administration of KP ethanolic extract in roosters; format: in vivo, Thai native roosters (Pradu Hang Dum breed); settings: male, Thai native Pradu Hang Dum, whole blood, single oral KP extract 200 mg/kg, blood, n = 9
observation type: Tmax (h)
Number only, in h; omit the unit.

COc1cc(OC)c2c(=O)c(OC)c(-c3ccc(OC)c(OC)c3)oc2c1 :: 1.83
COc1cc(OC)c2c(=O)cc(-c3ccccc3)oc2c1 :: 1.17

# context switch: different compound, same Tmax
Data request: Give me measured Tmax, please, for this compound: `COc1ccc(-c2cc(=O)c3c(OC)cc(OC)cc3o2)cc1`
Data returned: 1.33
